The measured values listed here are drawn from PubChem BioAssay.

Assay: growth inhibitors of H69AR lung tumor, primary screen, human, duplicate replicates (AID 580);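 further: 100% = mean luminescence of untreated wells and 0% = no signal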
Settings: H69AR lung tumor cells viability, ATP luminescence, 72 h; at 10 µM; stronger effect = lower value
Readout Name: viability (%)
Record the value in %, omitting the unit from your answer.

Past entries and their recorded results:
Nc1ccc(S(=O)(=O)Nc2ccccn2)cc1	91.3
CCCn1c(SCC(=O)NC(=O)NCc2ccco2)n[nH]c1=O	96.6
O=C(CSc1nnnn1C1CCCC1)N1CCN(C(=O)c2ccco2)CC1	105
COc1ccccc1NC(=O)CC(NCc1ccccc1)C(=O)O (configuration not stated)	89.1
CCCc1cc(=O)[nH]c(Nc2ccc(OC)c(Cl)c2)n1	70.6
CCOc1ccc(-c2cn(S(=O)(=O)c3cccc4nsnc34)nc2N)cc1	84.8
CCOC(=O)C1C(=O)OC(C)(C)C1C(C)C(=O)c1ccc(OC)cc1 (configuration not stated)	96
CC(=O)NC1(C(F)(F)F)NC(=O)N(CC(C)C)C1=O (configuration not stated)	102
Cc1cccc(C)c1-n1nnnc1SCSc1nnnn1-c1c(C)cccc1C	72.1
COc1cc(NS(=O)(=O)c2ccc(N)cc2)nc(OC)n1	100

Q) What value of viability has been reported for the following molecule? CC1(C)CC(=O)C2=C(C1)NC(=O)CC2C(=O)NCc1ccc(F)cc1 (configuration not stated)
A) 111

Q) What value of viability has been reported for the following molecule? COc1ccc2c(c1)c1c(n2C(C)=O)C(OC(C)=O)=NCC1
A) 87.4

Q) What value of viability has been reported for the following molecule? Cc1ccc(C2CC(c3cccc(Br)c3)Nc3nnnn32)cc1 (configuration not stated)
A) 91.7

Q) What value of viability has been reported for the following molecule? CCOc1nc(NCCC2=CCCCC2)nc(N2CCOCC2)n1
A) 96.7

###

Target: Receptor tyrosine-protein kinase erbB-2 (Homo sapiens) (UniProt P04626)
Sequence (P04626 whole entry, looked up): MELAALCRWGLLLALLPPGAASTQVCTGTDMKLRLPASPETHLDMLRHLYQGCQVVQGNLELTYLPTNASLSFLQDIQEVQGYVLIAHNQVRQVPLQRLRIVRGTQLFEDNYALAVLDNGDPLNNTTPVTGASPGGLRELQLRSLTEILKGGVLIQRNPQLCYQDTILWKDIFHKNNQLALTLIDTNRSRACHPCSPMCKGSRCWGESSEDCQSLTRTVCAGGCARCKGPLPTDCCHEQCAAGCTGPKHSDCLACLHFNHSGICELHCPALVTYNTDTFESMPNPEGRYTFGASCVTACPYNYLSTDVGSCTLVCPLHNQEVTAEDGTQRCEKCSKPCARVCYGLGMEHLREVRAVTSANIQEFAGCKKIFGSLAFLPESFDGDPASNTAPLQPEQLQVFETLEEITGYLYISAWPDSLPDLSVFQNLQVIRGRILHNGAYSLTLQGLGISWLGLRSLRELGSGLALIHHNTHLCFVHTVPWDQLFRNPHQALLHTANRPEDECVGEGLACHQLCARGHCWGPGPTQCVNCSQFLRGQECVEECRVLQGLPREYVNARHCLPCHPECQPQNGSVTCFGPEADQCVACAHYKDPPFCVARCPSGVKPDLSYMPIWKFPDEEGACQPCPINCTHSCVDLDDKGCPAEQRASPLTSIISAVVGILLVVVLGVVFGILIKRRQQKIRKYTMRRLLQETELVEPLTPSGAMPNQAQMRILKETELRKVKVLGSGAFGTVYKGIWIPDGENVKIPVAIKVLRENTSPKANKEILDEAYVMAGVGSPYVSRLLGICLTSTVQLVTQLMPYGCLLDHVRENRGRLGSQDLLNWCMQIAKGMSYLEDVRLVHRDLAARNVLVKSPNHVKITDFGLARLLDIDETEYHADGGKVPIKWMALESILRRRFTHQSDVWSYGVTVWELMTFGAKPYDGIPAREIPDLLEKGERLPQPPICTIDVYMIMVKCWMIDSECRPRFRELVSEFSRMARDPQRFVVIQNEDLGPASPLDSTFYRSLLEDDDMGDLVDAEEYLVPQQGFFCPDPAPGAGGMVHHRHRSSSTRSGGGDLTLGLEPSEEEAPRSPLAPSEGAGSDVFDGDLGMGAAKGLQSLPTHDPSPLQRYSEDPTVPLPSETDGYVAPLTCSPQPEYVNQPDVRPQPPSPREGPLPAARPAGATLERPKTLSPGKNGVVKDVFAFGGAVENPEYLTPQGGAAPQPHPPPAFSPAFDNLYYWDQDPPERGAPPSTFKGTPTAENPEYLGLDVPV
Assay: reducers of endogenous Her2 protein level, primary screen, SKBR3 breast tumor cells, AlphaScreen, ATP viability (AID 461);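 further: lower value means less Her2 protein in the cells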
Conditions: 18-24 h, at 10 µM, stronger effect = lower value
Define the label as 1 when Her2 level is strictly less than 90% and as 0 in all remaining cases.

Study these solved cases before continuing.
CCOC(=O)c1sc(NC(=O)COC(=O)Cn2cnc3ccccc32)c(C(=O)OCC)c1C	1
COc1ccc(CCn2c(N)c(C#N)c3nc4ccccc4nc32)cc1OC	1

Q) Given the entry COc1ccc(Cc2nnc3n2N=C(c2cc4ccccc4o2)CS3)cc1OC , would its reported Her2 level be below 90%?
A) 1

Q) Given the entry O=C(CSc1nc(O)cc(=O)n1-c1ccccc1)N1CCCCC1 , would its reported Her2 level be below 90%?
A) 1

Q) Given the entry CC(C)C[C@H]1C(=O)N2CCC[C@H]2[C@]2(O)O[C@](NC(=O)[C@@H]3C=C4c5cccc6[nH]c(Br)c(c56)CC4N(C)C3)(C(C)C)C(=O)N12 (stereo partly specified) , would its reported Her2 level be below 90%?
A) 1

Q) Given the entry COc1ccccc1NS(=O)(=O)c1ccc(OC)c(OC)c1 , would its reported Her2 level be below 90%?
A) 1

Q) Given the entry CC(C)(C)c1ccc(-c2nnc(SCCC#N)n2C2CCCC2)cc1 , would its reported Her2 level be below 90%?
A) 0

Q) Given the entry NC(=O)c1cc(-c2ccccc2)nc(N2CCOCC2)n1 , would its reported Her2 level be below 90%?
A) 1

Q) Given the entry Cc1cc(C)n2nc(SCC(=O)N(C)c3ccccc3)nc2n1 , would its reported Her2 level be below 90%?
A) 1

Q) Given the entry CCOC(=O)c1cnn(-c2ncnc3c2cnn3Cc2ccccc2)c1N , would its reported Her2 level be below 90%?
A) 1

Q) Given the entry COc1ccccc1-c1coc2c(CN3CCN(CCO)CC3)c(O)ccc2c1=O , would its reported Her2 level be below 90%?
A) 0

Q) Given the entry COc1ccccc1N(C)S(=O)(=O)c1ccc(C(=O)NC2=NCCS2)cc1 , would its reported Her2 level be below 90%?
A) 0

Q) Given the entry CC(C)C(=O)Nc1ccc(C(=O)NCc2cccnc2)cc1 , would its reported Her2 level be below 90%?
A) 0

Q) Given the entry Cc1ccc(S(=O)(=O)N(C)c2ccc(OCC(=O)OCc3c(C)noc3C)cc2)cc1 , would its reported Her2 level be below 90%?
A) 0

Q) Given the entry CCCCCn1c2nc3ccccc3nc2c2c(=O)n(CC(C)C)cnc21 , would its reported Her2 level be below 90%?
A) 0

###

Target: Receptor tyrosine-protein kinase erbB-2 (Homo sapiens) (UniProt P04626)
Experiment: reducers of endogenous Her2 protein level, primary screen, SKBR3 breast tumor cells, AlphaScreen, ATP viability (AID 461);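 further: lower value means less Her2 protein in the cells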
Settings: 18-24 h, at 10 µM, stronger effect = lower value
Listing: Her2 level of selected compounds
Record the value in %, omitting the unit from your answer.

Past entries and their recorded results:
COc1ccc(CC(=O)NCc2cccs2)cc1	103
CCCCCCc1ccc(-c2ncc(N)cn2)cc1	90.5
COc1cccc(C(=O)Nc2ccc(NC(C)=O)cn2)c1	76
Cc1c(NC(=O)c2ccc(COc3ccc4ccccc4c3)o2)c(=O)n(-c2ccccc2)n1C	91

Q) What value of Her2 level has been reported for the following compound? CC1(C)CC(=O)C(C=Nc2ccncc2)=C(O)C1
A) 93

Q) What value of Her2 level has been reported for the following compound? CN(C)S(=O)(=O)c1ccc(S(=O)(=O)N(Cc2ccco2)Cc2ccccc2Cl)cc1
A) 93

Q) What value of Her2 level has been reported for the following compound? COc1cc(NC(=O)c2ccc(COCC(F)(F)F)o2)cc(OC)c1OC
A) 84

Q) What value of Her2 level has been reported for the following compound? O=C(O)c1ccccc1C(=O)Nc1ccccc1
A) 124

Q) What value of Her2 level has been reported for the following compound? CCOC(=O)c1c(C)oc2c1c1c(c3ccccc32)OCN(Cc2cccnc2)C1
A) 75

Q) What value of Her2 level has been reported for the following compound? O=C1CC(c2ccco2)CC(O)=C1C=NCC1NCCc2ccccc21 (configuration not stated)
A) 98.5

Q) What value of Her2 level has been reported for the following compound? CC(C)(C)c1ccc2c(c1)OCC(C(=O)O)O2 (configuration not stated)
A) 106

Q) What value of Her2 level has been reported for the following compound? CC(=O)c1ccccc1Oc1nc(CN2CCOCC2)nc2scc(-c3cccs3)c12
A) 79

###

Test: reversal of MRP1-mediated doxorubicin resistance, pilot screen, H69AR cells, doxorubicin co-treatment (AID 601)
Details: H69AR cells + 2 uM doxorubicin, CellTiter-Glo, 72 h; measured here: viability with 2 uM doxorubicin; at 10 µM; stronger effect = lower value
Output schema: class label derived from viability. Mapping: class 0 (below 80%), class 1 (80% to below 90%), class 2 (90% or more)

Study these solved cases before continuing.
O=C(Nc1nnc(C2CCCC2)s1)C1CCN(S(=O)(=O)c2ccc(Cl)cc2)CC1	class 0
CCc1nc2sc3ccccc3c(=O)c2c(=O)n1Cc1ccco1	class 0
Cc1ccc(-c2nnc(SCC(=O)N3CC(C)CC(C)C3)o2)cc1C (stereo not drawn)	class 2
CCN(CC)C(=O)C1CCN(CC2CC=CCC2)CC1 (stereo not drawn)	class 2
COCCn1c(CN2CCN(c3ccccc3F)CC2)nc2c1c(=O)n(C)c(=O)n2C	class 2
Cc1csc(NC(=O)CCn2c(=O)oc3ccccc32)n1	class 1
COCCn1nnnc1C(C(C)C)N(Cc1cccnc1)Cc1ccccc1Cl (stereo not drawn)	class 0
O=C(NCCCN1CCN(c2cccc(Cl)c2)CC1)c1ccc(N2CCCC2=O)cc1	class 2

Q) Sort into band: CC1CCN(CCc2nc3cc(NS(=O)(=O)c4ccc(F)cc4)ccc3n2C)CC1
A) class 0

Q) Sort into band: COc1cccc(/C=N/n2c(-c3ccco3)nc3ccccc3c2=O)c1
A) class 1

Q) Sort into band: CN(C)CCC=C1c2ccccc2CCc2ccccc21
A) class 0

Q) Sort into band: Cc1ccc2c(c1)c1c(n2CC(O)Cn2c(C)nc3ccccc32)/C(=N\O)CCC1 (stereo not drawn)
A) class 0

Q) Sort into band: COc1cc([C@@H]2c3cc4c(cc3[C@H](O)[C@H]3COC(=O)[C@H]23)OCO4)cc(OC)c1OC
A) class 0

Q) Sort into band: CCCC(=O)n1nc(-c2ccc(OC)cc2)nc1N
A) class 2

###

Experiment: reversal of MRP1-mediated doxorubicin resistance, pilot screen, H69AR cells, doxorubicin co-treatment (AID 601)
Details: H69AR cells + 2 uM doxorubicin, CellTiter-Glo, 72 h; measured here: viability with 2 uM doxorubicin; at 10 µM; stronger effect = lower value
Listing: viability of selected compounds
Record the value in %, omitting the unit from your answer.

Cc1nnc(N(C)C(=O)c2cccnc2)s1	87.5
CCc1nnc(NC(=O)OCc2ccccc2)s1	94.9
CCN1CCN(c2nc3c(c(=O)n(C)c(=O)n3C)n2CCSc2ncccn2)CC1	87.8
Cc1ccc(O)c(-c2cc(C(=O)Nc3ccc(S(=O)(=O)N4CC(C)OC(C)C4)cc3)[nH]n2)c1 (stereo unspecified)	43.5
CCn1cc(C(=O)NC2CCc3ccccc32)c(=O)c2ccc(C)nc21 (stereo unspecified)	91.7
Cc1cccc(N(C)C(=S)Oc2ccc3ccccc3c2)c1	84.1

Q) What value of viability has been reported for the following compound? CCOC(=O)N1CCC(N(C(=O)Nc2ccc(Cl)c(Cl)c2)C(C)CC)CC1 (stereo unspecified)
A) 93.4

Q) What value of viability has been reported for the following compound? Cc1ccc(N(CC(O)CN2CCCC2)S(=O)(=O)c2ccc(C)cc2)cc1 (stereo unspecified)
A) 88.2

Q) What value of viability has been reported for the following compound? COCCCNC(=O)CSc1nc2ccc(N3CCOCC3)cc2c(=O)n1CCc1ccccc1
A) 99.9

Q) What value of viability has been reported for the following compound? CCCC(=O)Nc1c2c(nn1-c1ccc(OC)cc1)CS(=O)C2 (stereo unspecified)
A) 92.8

Q) What value of viability has been reported for the following compound? COC(=O)c1cc(Br)c(=O)n(CCc2ccc(F)cc2)c1
A) 92
